Protocol Summary: Human HepG2 cell viability assay in 384 well format
Type: toxicity, cell-based
Parameters: dose 125 nL, time 70.5 hour; concentration not given beside the values
Measurement Parameters: HepG2 cells, read-out: Inhibition
Measurement Kind: cytotoxicity at 70.5 h (%)
Your answer should be a plain number; it is taken to be in %.

Q: Would you kindly share the measured cytotoxicity at 70.5 h for Cn1ccc(C(=O)Nc2cc(F)ccc2OCC2CCCO2)cc1=O (centres undefined) ?
A: -8.3

Q: Would you kindly share the measured cytotoxicity at 70.5 h for COc1ccnc(N2CCN(C(=O)c3csc(C)n3)CC2)n1 ?
A: -4.93

Q: Would you kindly share the measured cytotoxicity at 70.5 h for NC(=O)c1cc(C2CCCN(C(=O)CCc3ccccn3)C2)n[nH]1 (centres undefined) ?
A: -3.73

Q: Would you kindly share the measured cytotoxicity at 70.5 h for Cc1occc1C(=O)N1C[C@@H](OCc2cccnc2)[C@H]2OCCC[C@@H]21 ?
A: -21.3

Q: Would you kindly share the measured cytotoxicity at 70.5 h for COc1ccc(-c2nc(CCNC(=O)NC3CCC(O)CC3)co2)cc1 (centres undefined) ?
A: 17.3

Q: Would you kindly share the measured cytotoxicity at 70.5 h for O=C(c1ccnn1COc1ccc(Cl)cc1)N1CCSCC1 ?
A: -11

Q: Would you kindly share the measured cytotoxicity at 70.5 h for CC(C)COC(C)C(=O)NCc1ccccc1 (centres undefined) ?
A: -5.1

Q: Would you kindly share the measured cytotoxicity at 70.5 h for CSC(C)C(=O)N1CCC(Oc2cc(C)ccc2F)(C(=O)O)CC1 (centres undefined) ?
A: -7.76

Q: Would you kindly share the measured cytotoxicity at 70.5 h for Cc1nc(CN2C[C@@H]3CN(C(=O)c4ccnnc4)C[C@@H]3C2=O)cs1 ?
A: -3.08

Q: Would you kindly share the measured cytotoxicity at 70.5 h for CC(C)n1c(=O)nc2n1C(=O)N(c1ccc(Br)cc1)C2 ?
A: -16.1

Q: Would you kindly share the measured cytotoxicity at 70.5 h for Fc1ccc(Cn2ncc3c2CN(c2noc(C4CC4)n2)C3)cc1 ?
A: -3.43

Q: Would you kindly share the measured cytotoxicity at 70.5 h for NC(=O)N1Cc2nccn2CC(Cn2ncccc2=O)C1 (centres undefined) ?
A: 1.65

Q: Would you kindly share the measured cytotoxicity at 70.5 h for CC(C)C(C)NC(=O)Nc1ccc(F)c(C(N)=O)c1 (centres undefined) ?
A: -3.91

Q: Would you kindly share the measured cytotoxicity at 70.5 h for CCc1cc(NCCCOC2CCCC2)ncn1 ?
A: -10.7

Q: Would you kindly share the measured cytotoxicity at 70.5 h for Cc1oncc1C(=O)NCc1cc(=O)n2c(n1)CN(CC(C)C)CCC2 ?
A: 22.7

Q: Would you kindly share the measured cytotoxicity at 70.5 h for CCCS(=O)(=O)CCN1CCN(C(C#N)c2ccccc2)CC1 (centres undefined) ?
A: -8.86

Q: Would you kindly share the measured cytotoxicity at 70.5 h for CCn1cc2c(n1)C(COCC1CC1)CN(C(=O)c1cc(C)on1)C2 (centres undefined) ?
A: -10.4

Q: Would you kindly share the measured cytotoxicity at 70.5 h for O=C(O)C1CN(Cc2cccc(-c3ccccn3)c2)CCO1 (centres undefined) ?
A: -9.06

Q: Would you kindly share the measured cytotoxicity at 70.5 h for CCS(=O)(=O)N1CC[C@H]2O[C@@H](c3nnc(C)o3)CC[C@H]21 ?
A: -8.41

* * *

Protocol Summary: Human HepG2 cell viability assay in 384 well format
Type: toxicity, cell-based
Design: dose 125 nL, time 70.5 hour; concentration not given beside the values
Measurement Parameters: HepG2 cells, read-out: Inhibition
I'd be grateful if you could share measured cytotoxicity at 70.5 h for these entries.
Your answer should be a plain number; it is taken to be in %.

Q: Would you kindly share the measured cytotoxicity at 70.5 h for COc1cccc(Cn2c(C)c(C)oc2=O)c1OC ?
A: 1.78

Q: Would you kindly share the measured cytotoxicity at 70.5 h for CCOCc1cccc(S(=O)(=O)Nc2ncc(C)s2)c1 ?
A: 3.25

Q: Would you kindly share the measured cytotoxicity at 70.5 h for COc1cccc(CC(C)NC(=O)NC(C)C)c1 (stereo not given) ?
A: -2.35

Q: Would you kindly share the measured cytotoxicity at 70.5 h for CC(=O)NC(C(=O)N1CCn2cncc2C1)C(C)C (stereo not given) ?
A: -2.16

Q: Would you kindly share the measured cytotoxicity at 70.5 h for COc1c(C2CCCN2Cc2csc(C(C)C)n2)c(C)nn1C (stereo not given) ?
A: 41

Q: Would you kindly share the measured cytotoxicity at 70.5 h for CCCNc1ccc(C(=O)NCCc2ccc(Cl)cc2)cn1 ?
A: -5.63

Q: Would you kindly share the measured cytotoxicity at 70.5 h for Fc1cccc(CN2CCC[C@@H](Cn3nnc(-c4ccccn4)n3)C2)c1 ?
A: -5.77

Q: Would you kindly share the measured cytotoxicity at 70.5 h for O=S(=O)(c1cccc(Cl)c1)N1C[C@@H]2CCN[C@@H]2C1 ?
A: -0.439

Q: Would you kindly share the measured cytotoxicity at 70.5 h for Cc1ccc(CCNC(=O)N2CCCC(Cc3nccn3C)C2)cn1 (stereo not given) ?
A: 1.34

Q: Would you kindly share the measured cytotoxicity at 70.5 h for Cc1cncc(NCC(O)c2ccco2)n1 (stereo not given) ?
A: -9.53

Q: Would you kindly share the measured cytotoxicity at 70.5 h for CN1CCOC(CNC(=O)CCCc2ccccc2)C1 (stereo not given) ?
A: -4.54

Q: Would you kindly share the measured cytotoxicity at 70.5 h for CC(C)n1ccnc1C1CCN(Cc2ccc(C(F)(F)F)c(F)c2)CC1 ?
A: 23.4

Q: Would you kindly share the measured cytotoxicity at 70.5 h for CS(=O)(=O)N1CCOCC2(CCN(C(=O)c3cnccn3)CC2)C1 ?
A: 17.6

Q: Would you kindly share the measured cytotoxicity at 70.5 h for Nc1nc(SCc2ccc3c(c2)OCO3)ns1 ?
A: -0.0923

Q: Would you kindly share the measured cytotoxicity at 70.5 h for Cc1ccc(C(=O)NCC2Cc3ccccc3O2)cc1S(C)(=O)=O (stereo not given) ?
A: -1.47

Q: Would you kindly share the measured cytotoxicity at 70.5 h for COC(=O)N1CCc2ccccc2C1C(=O)NCc1ccncc1 (stereo not given) ?
A: -3.87

Q: Would you kindly share the measured cytotoxicity at 70.5 h for CC(C)CC(NC(=O)CSCC(N)=O)c1cccs1 (stereo not given) ?
A: -5.44

Q: Would you kindly share the measured cytotoxicity at 70.5 h for Cc1ccc(CN2CC[C@H]3OCC[C@@H](C(=O)NCC4CC4)[C@@H]3C2)o1 ?
A: -5.45

Q: Would you kindly share the measured cytotoxicity at 70.5 h for Cc1cc(CCC(=O)N2CCOCC2)ccc1Br ?
A: -5.28

Q: Would you kindly share the measured cytotoxicity at 70.5 h for CC(=O)Nc1cc(CN(C)C)ccc1C ?
A: -6.9

Q: Would you kindly share the measured cytotoxicity at 70.5 h for c1cncc(NCCNC2CSCCSC2)c1 ?
A: 5.88

Q: Would you kindly share the measured cytotoxicity at 70.5 h for Cc1nc[nH]c1C(=O)N1CCC2(CC1)CN(CCN(C)C)C(=O)O2 ?
A: -6.22

Q: Would you kindly share the measured cytotoxicity at 70.5 h for CN1CC(C(=O)NCc2cccnc2-n2cccn2)CC1=O (stereo not given) ?
A: -6.03

Q: Would you kindly share the measured cytotoxicity at 70.5 h for CCn1cnnc1C1CCN(C(=O)COc2ccc(Cl)cc2)CC1 ?
A: -9.99

Q: Would you kindly share the measured cytotoxicity at 70.5 h for Cc1c2ncn(CC(=O)NC(C)C)c(=O)c2nn1C ?
A: 3.83

Q: Would you kindly share the measured cytotoxicity at 70.5 h for FC(F)(F)CCc1ncnn1-c1ccc2c(c1)OCO2 ?
A: -7.77

Q: Would you kindly share the measured cytotoxicity at 70.5 h for COCC(=O)NC(C)Cc1cccc(OC)c1 (stereo not given) ?
A: 0.122

Q: Would you kindly share the measured cytotoxicity at 70.5 h for CCN(CC1CCOC1)S(=O)(=O)Cc1cc(Cl)ccc1OC (stereo not given) ?
A: -14.8

Q: Would you kindly share the measured cytotoxicity at 70.5 h for O=C(Nc1cccnc1)[C@H]1C[C@H]2OCC[C@H]2N(Cc2ccc(F)cc2)C1 ?
A: -10

Q: Would you kindly share the measured cytotoxicity at 70.5 h for O=C(c1cnn2c1OCCC2)N1CCC2(CC1)OCCO2 ?
A: -1.08

Q: Would you kindly share the measured cytotoxicity at 70.5 h for O=C(NCCc1cnccn1)C1(N2CCCCC2)Cc2ccccc2C1 ?
A: -8.18

Q: Would you kindly share the measured cytotoxicity at 70.5 h for Cc1nc(CN2CCC3(CC2)CC(=O)N(C)c2ccccc23)cs1 ?
A: -7.28

Q: Would you kindly share the measured cytotoxicity at 70.5 h for CN(C)S(=O)(=O)c1ccc(CN2CCCC2c2ccc[nH]2)o1 (stereo not given) ?
A: -5.46

Q: Would you kindly share the measured cytotoxicity at 70.5 h for CC(C)Cc1cc(CNC(=O)c2cccc3c2NCCC3)no1 ?
A: -8.61

Q: Would you kindly share the measured cytotoxicity at 70.5 h for CCn1cnnc1CNC(=O)NC(c1ccc(OC)cc1)C1CC1 (stereo not given) ?
A: -6.45

Q: Would you kindly share the measured cytotoxicity at 70.5 h for CC(C)c1ccc(NC(=O)c2ncc(C(N)=O)cc2Cl)cc1 ?
A: -86.1

Q: Would you kindly share the measured cytotoxicity at 70.5 h for O=C1CCC2(CCN(Cc3ccc(F)cc3)CC2)N1CCN1CCCC1 ?
A: -19.9

Q: Would you kindly share the measured cytotoxicity at 70.5 h for CCC1C(=O)NCCN1c1cc(C)ncn1 (stereo not given) ?
A: -22.8

Q: Would you kindly share the measured cytotoxicity at 70.5 h for CCc1nc(C2CCCN2Cc2cnc(C)cn2)no1 (stereo not given) ?
A: -3.7

Q: Would you kindly share the measured cytotoxicity at 70.5 h for Nc1nc2c(c(NC(=O)Nc3ccccc3)n1)CCCC2 ?
A: 16.9

Q: Would you kindly share the measured cytotoxicity at 70.5 h for CN1CCN(Cc2cccnc2)C(=O)C12CCN(S(C)(=O)=O)CC2 ?
A: -5.92

Q: Would you kindly share the measured cytotoxicity at 70.5 h for O=C1CSC(c2ccsc2)c2sccc2N1 (stereo not given) ?
A: -18.3

Q: Would you kindly share the measured cytotoxicity at 70.5 h for CCNC(=O)C1CCN(c2cc(CC)nc3ccnn23)C1 (stereo not given) ?
A: 15.1

Q: Would you kindly share the measured cytotoxicity at 70.5 h for Cc1nnc(CN(C)Cc2ccc(C(=O)Nc3sccc3C#N)cc2)o1 ?
A: 0.967

Q: Would you kindly share the measured cytotoxicity at 70.5 h for Cc1cc(C(=O)Nc2ccc(N3CCCC3)cn2)ccc1-n1cncn1 ?
A: -1.17

Every entry's value here was drawn from ChEMBL document CHEMBL3507680.
